tested on: HepG2 cells; assay: HepG2 cytotoxicity assay; details: read-out: HepG2 cytotoxicity assay IC50; dose response confirmation
pIC50: −log10 of the molar value.
Outcome label depends on pIC50 relative to 6: at/above gives yes, below gives no.

> print(dat)
                                   compound  group.label
1  CCC(CC)n1cc2c(ccc3nc(N)nc(N)c32)n1 [TCMDC-138019]          yes
2  Br.Cc1ccc(OCCCON2C(=N)N=C(N)NC2(C)C)cc1C [TCMDC-131650]          yes
3  COc1ccc2nc3cc(Cl)ccc3c(NCc3ccccc3)c2c1.Cl [TCMDC-137663]           no
4  CN1CCN(c2ccc(Nc3ncc(Cl)c(Nc4cccnc4C(N)=O)n3)cc2)CC1.Cl [TCMDC-134164]           no
5  COc1ccc(C=C2SC(=N)N(c3ccccc3OC)C2=O)cc1 [TCMDC-124486]           no
6  Cc1cc(=O)c(-c2cccc(Oc3ccc(Cl)cc3)c2)c(C)[nH]1 [TCMDC-137415]           no
7  Cc1nc2nc(N)nc(N)c2c(C)c1Cc1ccccc1.Cl [TCMDC-137670]          yes
8  COc1cccc(C=Cc2nc(=O)c3ccccc3o2)c1OC [TCMDC-124577]           no
9  Cc1nc(NC2=NCN(CCCN3CCOCC3)CN2)nc2c(C)cccc12 [TCMDC-125086]           no

====

system: HepG2 cells; assay: HepG2 cytotoxicity assay; details: HepG2 cytotoxicity listed with the Pb ODA data set (this manuscript)
Attribute Measured: Pb ODA (this manuscript) HepG2 cytoxicity (µM)

> print(dat)
                                    compound  target.desc  numeric.readout
 1  Cc1[nH]c(C)c(-c2ccc(Nc3ccc(C(F)(F)F)cn3)cc2)c(=O)c1Br  HepG2 cells             0.98
 2   CN(C)S(=O)(=O)n1ccc2c3c(N)nc(N)nc3ccc21  HepG2 cells           0.0017
 3  COc1ccc2ncc(F)c(CCN3C4CCC3CC(NCc3ccc5c(c3)OCCO5)C4)c2n1.Cl (centres unmarked)  HepG2 cells            39.81
 4  COc1cc(NC2=C(c3ccccc3)C(=O)c3ccccc32)ccn1  HepG2 cells           100.00
 5   CC(Cl)=CCc1c(C)[nH]c2c(ccc3ccccc32)c1=O  HepG2 cells           100.00
 6  O=C1C(c2ccccc2)=C(Nc2cccc(OC(F)(F)C(F)F)c2)c2ccccc21  HepG2 cells           100.00
 7  CN(C)S(=O)(=O)n1ncc2c3c(N)nc(N)nc3ccc21.Cl  HepG2 cells            0.001
 8  Br.CCC(ON1C(N)=NC(N)=NC1(C)C)c1ccc(Cl)cc1 (centres unmarked)  HepG2 cells          0.00513
 9  Cc1noc(C)c1-c1ccc2c(Nc3ccc(C(F)(F)F)cc3)c(C(N)=O)cnc2c1.Cl  HepG2 cells            48.98
10  Cc1nc(C)c(-c2ccc(Oc3ccc(Cl)c(Cl)c3)cc2)c(O)c1Cl  HepG2 cells            16.98
11  CCc1c(C)nc(-n2nc(C)cc2NC(=O)C(CC)c2ccccc2)[nH]c1=O (centres unmarked)  HepG2 cells             0.95

Provenance of the data: paper PMC6753678
